- protocolDescription: Phase I trial N07DOW: docetaxel plasma exposure after oral docetaxel with ritonavir
- Type: in vivo
- conditionInfo: human, po, oral docetaxel + ritonavir, single dose once per week, 19 patients with treatment duration 19 up to 72 weeks, mean±SD, read-out: docetaxel AUC0-48 h
measuredProperty: AUC(0-t) (ng·h/mL)
Please reply with the bare figure in ng·h/mL and do not write the unit itself.

(Q) Tell me measured AUC(0-t) for CC(=O)O[C@@]12CO[C@@H]1C[C@H](O)[C@@]1(C)C(=O)[C@H](O)C3=C(C)[C@@H](OC(=O)[C@H](O)[C@@H](NC(=O)OC(C)(C)C)c4ccccc4)C[C@@](O)([C@@H](OC(=O)c4ccccc4)[C@H]21)C3(C)C please.
(A) 803

---

- protocolDescription: Phase I trial N07DOW: docetaxel plasma exposure after oral docetaxel with ritonavir
- Assay type: in vivo
- conditionInfo: human, oral, 52 patients with SD or PR as best treatment response, mean±SD, read-out: docetaxel AUC0-48 h
measuredProperty: AUC(0-t)
Report as: number unit

(Q) Tell me measured AUC(0-t) for CC(=O)O[C@@]12CO[C@@H]1C[C@H](O)[C@@]1(C)C(=O)[C@H](O)C3=C(C)[C@@H](OC(=O)[C@H](O)[C@@H](NC(=O)OC(C)(C)C)c4ccccc4)C[C@@](O)([C@@H](OC(=O)c4ccccc4)[C@H]21)C3(C)C please.
(A) 1080 ng·h/mL

---

- protocolDescription: Phase I trial N07DOW: docetaxel plasma exposure after oral docetaxel with ritonavir
- Type: in vivo
- conditionInfo: human, oral, 15 patients with SAEs and DLTs (≥grade 3), mean±SD, read-out: docetaxel CMAX
measuredProperty: Cmax (ng/mL)
Please reply with the bare figure in ng/mL and do not write the unit itself.

(Q) Tell me measured Cmax for CC(=O)O[C@@]12CO[C@@H]1C[C@H](O)[C@@]1(C)C(=O)[C@H](O)C3=C(C)[C@@H](OC(=O)[C@H](O)[C@@H](NC(=O)OC(C)(C)C)c4ccccc4)C[C@@](O)([C@@H](OC(=O)c4ccccc4)[C@H]21)C3(C)C please.
(A) 351

---

- protocolDescription: Phase I trial N10BOM: docetaxel plasma exposure after oral docetaxel with ritonavir
- Assay type: in vivo
- conditionInfo: human, po, oral docetaxel + ritonavir bi-daily once per week, 8 patients with treatment duration 19 up to 55 weeks
measuredProperty: Cmax (ng/mL)
Please reply with the bare figure in ng/mL and do not write the unit itself.

(Q) Tell me measured Cmax for CC(=O)O[C@@]12CO[C@@H]1C[C@H](O)[C@@]1(C)C(=O)[C@H](O)C3=C(C)[C@@H](OC(=O)[C@H](O)[C@@H](NC(=O)OC(C)(C)C)c4ccccc4)C[C@@](O)([C@@H](OC(=O)c4ccccc4)[C@H]21)C3(C)C please.
(A) 143

---

- protocolDescription: Phase I trial N10BOM: docetaxel plasma exposure after oral docetaxel with ritonavir
- Assay type: in vivo
- conditionInfo: human, oral, 25 patients with SD or PR as best treatment response
measuredProperty: Cmax (ng/mL)
Please reply with the bare figure in ng/mL and do not write the unit itself.

(Q) Tell me measured Cmax for CC(=O)O[C@@]12CO[C@@H]1C[C@H](O)[C@@]1(C)C(=O)[C@H](O)C3=C(C)[C@@H](OC(=O)[C@H](O)[C@@H](NC(=O)OC(C)(C)C)c4ccccc4)C[C@@](O)([C@@H](OC(=O)c4ccccc4)[C@H]21)C3(C)C [docetaxel] please.
(A) 140
